procedure_details: inhibitors of TNFa-induced NFkB p65 translocation, primary screen, imaging, HUVEC, MLSMR starter and 10KST1 sets (AID 438);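 also: compound added about 3h40 before a 20 min TNFalpha stimulation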
condition: HUVEC TNFa-induced p65 nuclear translocation; measured here: nuclei count (cytotoxicity indicator), at 2.08 µM
Task for the reader: assign each of the following compounds its reported cell count.

Exercise: Indicate its recorded cell count; the compound in question is CCOC(=O)C1CCCN(c2nc3ccccc3nc2C(C#N)C(=O)OCCOC)C1 (stereo unspecified)
Solution: 542

Exercise: Quick one: give measured cell count for Cc1cc(/C=c2/sc3nc4ccccc4n3c2=O)c(C)n1-c1ccccn1
Solution: 477

Exercise: Kindly indicate its recorded cell count. Item: Fc1ccc2[nH]c3c(N4CCN(C5CCCCC5)CC4)ncnc3c2c1
Solution: 501

Exercise: Complete the entry with cell count for COC(=O)c1ccc(=O)n(Cc2ccco2)c1
Solution: 300

Exercise: Tell us which cell count value is on record for Cc1ccc2[nH]c(CCN(C)C)c(CC#N)c2c1
Solution: 564

Exercise: Please list cell count recorded for the compound CCOC(=O)C1CSc2[nH]c(=O)sc2C1c1ccccc1 (stereo unspecified)
Solution: 537

Exercise: // Input: COc1cccc(OC)c1-c1nn2c(-c3ccccc3Cl)nnc2s1 . Output its cell count only.
Solution: 611

Exercise: For the compound C=CCOn1c(=O)c(-c2cc3ccccc3o2)[n+]([O-])c2ccccc21 , give its measured cell count value.
Solution: 536

Exercise: Item Cc1cc(C)n(C(=O)CSc2nc3ccccc3o2)n1 : provide cell count
Solution: 551

Exercise: Return the recorded cell count value; entry: CC(C)(C)c1cccc(/C=N/O)c1O
Solution: 519

Exercise: Answer with the recorded cell count of O=C1C2ON(c3ccccc3)C(c3ccncc3)C2C(=O)N1c1ccccc1 (stereo unspecified) only.
Solution: 359
